Ref: the domain aggregation screens of Martell et al. (2025)

Assay: soluble fraction after stress (log2 fold change); higher = more stays soluble; pooled small domains, quantitative proteomics;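 also: 20 min heating vs room temperature control held 20 min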
Conditions: stress: 75 degC
This section presents sequences with their documented soluble fraction (log2) values.
Answer as a number with no unit attached.

INSERT INTO assay_data (biopolymer_sequence, assay_metric, reported_measurement) VALUES
  ('HMLRDMIIQSYRYYTDKERNPRQVWNRMEADAFWEIIRDYEGYNGDGYVHTKIIPEMEALTVIEMDN', 'soluble fraction (log2)', -1.83),
  ('HMPTITIQRGIILSSTTKGFIDELSHSQIKNAIVERLGEHHVMIHESQLDAVIKYAQKKEAVINIYL', 'soluble fraction (log2)', -0.874),
  ('HMTKDVIEIVDGNKFVFHKTIATDSVSSVINKYHISEADFRTWNELTGDMKVGEEYIVQLSLH', 'soluble fraction (log2)', -0.87),
  ('HMNMLGSNIKYLRNRHKLSQQELSEKLGVPRSSLSDYERGHTQVGLDSLIKLADIFDVKIDDLLRSNLSHR', 'soluble fraction (log2)', -0.439),
  ('HMRKEPSYASDIITRLKEADLIVVEGTLYPLLTRLKKDGLLSYEWRESTQGPPRKYYALTLDGET', 'soluble fraction (log2)', -0.47),
  ('HMGYTTSFVVQLKNAVSISFDEIDQNLRKLPGVEDVVIVEEAAMAYLKVDRQHFREEQLAHFEFVRQ', 'soluble fraction (log2)', -1.99),
  ('HMGNLPPAVINARIKVSPAGRGVFVGFDKGSTSTEAKYADAIRGYLPNIEFNKDDHESVVTVPFNFR', 'soluble fraction (log2)', -0.0124),
  ('HMHDLSQQIVRYLIQQGGSSSLTDKSDPQEIYRTFKVSKKKYKQALGNLYKSKTIVITSGKIELVD', 'soluble fraction (log2)', -3.03);

Query block: Give a short answer stating reported soluble fraction (log2) for HMLVTQSITVPMAMSGIRLDAALAMLFPDHSRNRLKAWLDDGHILVDGAVWAGKQRLEGNEEITATLPEAK .
Result block: -0.673

Query block: Give a short answer stating reported soluble fraction (log2) for HMGSPVTAVMNRVLNETERQIVTLHVISGFKHREIAELLEKPVGTVLWTYNNALGKMRKAMQRE .
Result block: -1.67

Query block: Give a short answer stating reported soluble fraction (log2) for HMSLEDYVIIKNKTVKVYETEFDGAPVVTSSSVGQKLILVEYNDNFAKILYRAKDGLDYVGYIKRKDVYVR .
Result block: -2.55

Query block: Give a short answer stating reported soluble fraction (log2) for HMDTRSSARKALDAVNLLLETYGAKAYQHSYEIAGRRQQFQTPGDFMAFRSRLMAEVATEENAARINA .
Result block: -0.211
